test system: 8226/I-R myeloma cells; assay: MTT growth inhibition, imexon-resistant 8226 myeloma cells; type: cell-based, human; settings: Homo sapiens; Table 5; imexon-resistant 8226; read-out: IC50
// NB: equality with 2 µg/mL counts as n; only IC50 strictly below is y

Solved entries:
{"compound": "N#CC1CN1C(=O)Nc1ccc(Cl)c(Cl)c1 (stereo not shown)", "cat": "y"}
{"compound": "N#CC1CN1C(=O)Nc1ccc(F)cc1 (stereo not shown)", "cat": "y"}
{"compound": "CNC(=O)N1CC1C#N (stereo not shown) [AMP 403, 2-Cyanoaziridine-1-(N-methyl)carboxamide]", "cat": "n"}
{"compound": "N#CC1CN1C(=O)Nc1ccc(Cl)cc1Cl (stereo not shown)", "cat": "n"}
{"compound": "CC(=O)c1cccc(NC(=O)N2CC2C#N)c1 (stereo not shown)", "cat": "n"}
{"compound": "N=C1NC(=O)N2CC12 (stereo not shown)", "cat": "n"}

Please examine the following record next.
query: In plain terms, does CC(C)(C)NC(=O)N1CC1C#N (stereo not shown) come in under 2 µg/mL for IC50?
result: n
